Every entry's value here was drawn from patent US20150259344A1.

Biological target: human α7 nAChR (Homo sapiens)
Construct: expressed in transfected cells
Sequence (P36544 23-502): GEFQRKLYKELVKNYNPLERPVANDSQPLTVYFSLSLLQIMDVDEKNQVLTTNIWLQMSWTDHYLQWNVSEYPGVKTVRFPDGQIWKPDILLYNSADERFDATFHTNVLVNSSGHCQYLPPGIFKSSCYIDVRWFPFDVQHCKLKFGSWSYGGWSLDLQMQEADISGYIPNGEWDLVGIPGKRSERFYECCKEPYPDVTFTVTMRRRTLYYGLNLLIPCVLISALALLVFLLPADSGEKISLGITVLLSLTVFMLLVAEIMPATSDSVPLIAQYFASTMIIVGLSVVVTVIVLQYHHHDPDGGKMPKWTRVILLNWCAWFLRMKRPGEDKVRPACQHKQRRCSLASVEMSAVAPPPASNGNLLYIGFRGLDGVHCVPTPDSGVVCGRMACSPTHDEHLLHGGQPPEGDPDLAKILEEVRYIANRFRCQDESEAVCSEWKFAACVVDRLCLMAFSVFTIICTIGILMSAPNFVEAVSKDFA
Experiment: Evaluation of PAM activity with human α7 nACh receptor stably expressing cells (aequorin luminescence, FDSS7000)
Format: cell-based
Conditions: 10 μM test compound; ACh at EC20; ratio of RLU (Max-Min) to control wells; read-out: α7PAM (%) @10 μM
endpoint_label: activity at 10 µM (%)
All answers are understood in %, so give the number only.

O=C(N[C@H]1CC[C@@H](n2cnc(-c3ccccc3)c2Cl)CC1)C1CCC(F)(F)CC1 : 454
O=C(N[C@H]1CC[C@@H](n2cnc(-c3ccc(F)cc3)c2Cl)CC1)C1CCC1 : 641
CC(C)(F)C(=O)N[C@H]1CC[C@@H](n2cnc(-c3cccc(C(F)(F)F)c3)c2C#N)CC1 : 263

Ask: What value of activity at 10 µM has been reported for the following molecule? `CC(C)(F)C(=O)N[C@H]1CC[C@@H](n2cnc(-c3ccc(F)c(F)c3)c2)CC1`
Result: 227

Ask: Dear colleague, I am looking for the recorded activity at 10 µM of the following molecule: `COc1ccc(-c2ncn(C3CCN(C(=O)NC4CCCC4)CC3)c2Cl)cc1`
Result: 779

Ask: Fill in: activity at 10 µM of `CCOc1ccc(-c2cn(C3CCN(C(=O)C4CCC(F)(F)CC4)CC3)cn2)cc1` is ___
Result: 484

Ask: Dear colleague, I am looking for the recorded activity at 10 µM of the following molecule: `O=C(NC1CCC(F)(F)CC1)N1[C@@H]2CC[C@H]1C[C@@H](n1cnc(-c3cccc(F)c3F)c1)C2`
Result: 880

Ask: For `O=C(NC1COC1)[C@H]1CC[C@@H](n2cnc(-c3ccc(F)cc3)c2Cl)CC1` , what is its reported activity at 10 µM?
Result: 537
